# Measurement Protocol: TOX21_p53_BLA_p5_viability: Viability Assessment in the Tox21 HCT-116 p53 Agonism Beta-lactamase Assay, Phase 5 (AID 2283600)
# Description: TOX21_p53_BLA_p5 is a cell-based, single-readout assay that uses HCT116, a human intestinal cell line, […] in a 1536-well plate.TOX21_p53_BLA_p5_viability is an assay readout measuring cellular ATP content and detected with CellTiter-Glo Luciferase-coupled ATP quantitation.TOX21_p53_BLA_p5_viability used a type of viability reporter where loss-of-signal activity can be used to understand changes in the cell viability. […]
Results filed as inconclusive are left out. Calls of active or inactive are those of the source. How the source made its calls: active means hit-call score of the fitted dose curve at least 0.9, where 1 is the maximum; inconclusive means response in the unintended direction; inactive means score below 0.9.
Form entry, call: pick from class 1 (active), class 0 (inactive)

Inquiry: State the result this test recorded for O=[N+]([O-])c1ccccc1O .
Reply text: class 0

Inquiry: State the result this test recorded for N#Cc1ccncc1 .
Reply text: class 0

Inquiry: State the result this test recorded for CCCCOC(=O)COC(=O)c1ccccc1C(=O)OCCCC .
Reply text: class 0

Inquiry: State the result this test recorded for O=NN1CCCCCCC1 .
Reply text: class 0

Inquiry: State the result this test recorded for CCOP(=S)(OCC)SCSc1cc(Cl)ccc1Cl .
Reply text: class 0

* * *

# Read-out: Macrophage colony-stimulating factor (MCSF), CSF1 (gene 1435)
# Measurement Protocol: BSK_LPS_MCSF: BioMAP Diversity Plus: LPS Assay for Macrophage colony-stimulating factor (MCSF) Biomarker Activity (AID 2283083)
# Condition Label: primary human HUVEC with PBMC; actives raise or lower the signal
Calls of active or inactive are those of the source. Rule for the calls: active = hit-call score of the fitted dose curve at least 0.9, where 1 is the maximum; inactive = score below 0.9.
Form entry, call: pick from active, inactive

Example results:
compound=CC1(C)[C@H](C(=O)O[C@H](C#N)c2cccc(Oc3ccccc3)c2)[C@@H]1/C=C(\Cl)C(F)(F)F cat=inactive
compound="CCOC(=O)C(SP(=S)(OC)OC)c1ccccc1 (stereo not drawn)" cat=inactive
compound=Clc1cccc(Cl)c1 cat=inactive
compound=O=C1C=CC(=O)c2ccccc21 cat=active
compound=CCCCN(CCCC)C(=S)[S-].CCCCN(CCCC)C(=S)[S-].[Ni+2] cat=inactive

Inquiry: State the result this test recorded for O=C(Cc1ccccc1)OCCc1ccccc1 .
Reply text: inactive

Inquiry: State the result this test recorded for CCCCCCCCCCCCN(C)C .
Reply text: inactive

Inquiry: State the result this test recorded for CCC(C)(C#N)N=NC(C)(C#N)CC (stereo not drawn) .
Reply text: inactive

Inquiry: State the result this test recorded for C[C@]12CC[C@@H](O)C[C@@H]1CC[C@@H]1[C@@H]2CC[C@]2(C)C(=O)CC[C@@H]12 .
Reply text: inactive

Inquiry: State the result this test recorded for Cc1c([N+](=O)[O-])c(C)c([N+](=O)[O-])c(C(C)(C)C)c1[N+](=O)[O-] .
Reply text: inactive

Inquiry: State the result this test recorded for COc1ccccc1N .
Reply text: inactive

Inquiry: State the result this test recorded for Oc1c(Cl)cc(Cl)cc1Cl .
Reply text: inactive

Inquiry: State the result this test recorded for Cc1cccc(OP(=O)(Oc2cccc(C)c2)Oc2cccc(C)c2)c1 .
Reply text: inactive

* * *

# Measurement Protocol: BSK_3C_VCAM1: BioMAP Diversity Plus: 3C Assay for Vascular cell adhesion molecule 1 (VCAM1) Biomarker Activity (AID 2282999)
# Condition Label: BioMAP 3C HUVEC, VCAM1 ELISA, cytokine-stimulated; actives raise or lower the signal
Active and inactive are the calls of the source. How the source made its calls: active means hit-call score of the fitted dose curve at least 0.9, where 1 is the maximum; inactive means score below 0.9.
Form entry, call: pick from label 1 (active), label 0 (inactive)

compound=O=C(CCl)NCO cat="label 0"
compound=CCCCCCCCCCCCc1cccc(S(=O)(=O)O)c1 cat="label 0"
compound=Oc1ccc(Cc2ccc(O)cc2)cc1 cat="label 0"
compound=Cc1ccc2nc3sc(=O)sc3nc2c1 cat="label 1"
compound=O=S(=O)(C(Cl)(Cl)Cl)C(Cl)(Cl)Cl cat="label 1"
compound=Oc1cc(Cl)c(Cl)cc1Cl cat="label 0"

Inquiry: State the result this test recorded for CC(C)(C)c1cc([N+](=O)[O-])cc(C(C)(C)C)c1O .
Reply text: label 1

Inquiry: State the result this test recorded for Cc1cc(Cl)ccc1OC(C)C(=O)O (stereo not given) .
Reply text: label 0

Inquiry: State the result this test recorded for Cc1cccc(OP(=O)(Oc2cccc(C)c2)Oc2cccc(C)c2)c1 .
Reply text: label 0

Inquiry: State the result this test recorded for CC(C)O.CC(C)O.OCCN(CCO)CCO.OCCN(CCO)CCO.[Ti] .
Reply text: label 0

Inquiry: State the result this test recorded for Oc1cccc(-c2ccccc2)c1 .
Reply text: label 1

Inquiry: State the result this test recorded for c1ccc2sc(SNC3CCCCC3)nc2c1 .
Reply text: label 0

Inquiry: State the result this test recorded for Nc1ccc(N)cc1 .
Reply text: label 0

Inquiry: State the result this test recorded for CCOP(=S)(OCC)SCS(=O)(=O)C(C)(C)C .
Reply text: label 0

Inquiry: State the result this test recorded for [Cl][Sn]([c]1ccccc1)([c]1ccccc1)[c]1ccccc1 .
Reply text: label 1

Inquiry: State the result this test recorded for CCOC(=O)CCN(SN(C)C(=O)Oc1cccc2c1OC(C)(C)C2)C(C)C .
Reply text: label 1

Inquiry: State the result this test recorded for C#CCOC(=O)/C=C(C)/C=C/CC(C)CCCC(C)C (stereo not given) .
Reply text: label 0

Inquiry: State the result this test recorded for CCCCOC(=O)COC(=O)c1ccccc1C(=O)OCCCC .
Reply text: label 0
